Parameter logD: see the listing below.
assay: Lipophilicity, Log D of the compound; format: physicochemical; settings: octanol/water
assay_readout: logD

                                   compound  assay_readout  test_value
0  CNCc1ccc([C@@H](C)Oc2cc(-c3cnc4ccccn34)sc2C(N)=O)c(Cl)c1           logD         1.9
1  C[C@@H](Oc1cc(-c2cnc3ccccn23)sc1C(N)=O)c1ccc(CN(C)C)cc1Cl           logD         2.9
2  C[C@@H](Oc1cc(-c2cnc3ccccn23)sc1C(N)=O)c1ccc(CN2CCN(C)CC2)cc1Cl           logD         2.8
3  C[C@@H](Oc1cc(-c2cnc3ccccn23)sc1C(N)=O)c1ccc(CN2CCC(O)C2)cc1Cl (stereo partly specified)           logD         3.3
4  C[C@@H](Oc1cc(-c2cnc3ccccn23)sc1C(N)=O)c1ccc(CNC2CC2)cc1Cl           logD         3.6
5  C[C@@H](Oc1cc(-c2cnc3ccccn23)sc1C(N)=O)c1ccc(CNC(C)(C)C)cc1F           logD         2.2

---

experiment: Lipophilicity, Log D of the compound; type: physicochemical; details: octanol/water
assay_readout: logD

>>> print(df.to_string())
                              sample_smiles  assay_readout  test_value
0  C[C@@H](Oc1cc(-c2cnc3ccccn23)sc1C(N)=O)c1ccc(CN2CCC(O)CC2)cc1Cl           logD         3.3
1  C[C@@H](Oc1cc(-c2cnc3ccccn23)sc1C(N)=O)c1ccc(CN2CCS(=O)(=O)CC2)cc1Cl           logD         3.2
2  C[C@@H](Oc1cc(-c2cnc3ccccn23)sc1C(N)=O)c1ccc(CN2CCNC(=O)C2)cc1Cl           logD         2.8
3  C[C@@H](Oc1cc(-c2cnc3ccccn23)sc1C(N)=O)c1ccc(CNC2CCCC2)cc1Cl           logD         3.5
4  NC(=O)c1sc(-c2cnc3ccccn23)cc1OCc1ccccc1Cl           logD         4.1

---

assay: Plasma concentration in F344/NJcl-rnu nude rat at 0.60 mg/kg after 48 hrs; format: ADME, organism-based; design: dose 0.6 mg/kg; settings: 0.6 mg/kg
assay_readout: concentration at 48 h (nM)

>>> df
                              sample_smiles  test_value
0  C[C@@H](Oc1cc(-c2cnc3ccccn23)sc1C(N)=O)c1ccc(CNC(C)(C)C)cc1OC(F)F          80

---

assay: Plasma concentration in F344/NJcl-rnu nude rat at 0.45 mg/kg after 48 hrs; format: ADME, organism-based; set-up: dose 0.45 mg/kg
assay_readout: concentration at 48 h (nM)

                              sample_smiles  value_units  test_value
0  C[C@@H](Oc1cc(-c2cnc3ccccn23)sc1C(N)=O)c1ccc(CNC(C)(C)C)cc1OC(F)F           nM          50

---

assay: Lipophilicity, Log D of the compound; assay type: physicochemical; settings: octanol/water
Parameter logD: see the listing below.
assay_readout: logD

>>> print(df.to_string())
                                   compound  test_value
0  CC(C)NCc1ccc([C@@H](C)Oc2cc(-c3cnc4ccccn34)sc2C(N)=O)c(Cl)c1         2.3
1  CCNCc1ccc([C@@H](C)Oc2cc(-c3cnc4ccccn34)sc2C(N)=O)c(Cl)c1         2.8
2  C[C@@H](Oc1cc(-c2cnc3ccccn23)sc1C(N)=O)c1ccc(CNC(C)(C)CO)cc1Cl         2.9
3  C[C@@H](Oc1cc(-c2cnc3ccc(CO)cn23)sc1C(N)=O)c1ccccc1Cl         4.2
4  NC(=O)c1sc(-c2cnc3ccccn23)cc1OCc1ccccc1C(F)(F)F         4.2
5  NC(=O)c1sc(-n2cnc3ccccc32)cc1OCc1ccccc1C(F)(F)F         4.6
6  CC(Oc1cc(-c2cnc3ccccn23)sc1C(N)=O)c1cc(CO)ccc1Cl (centres undefined)         3.7
7  C[C@@H](Oc1cc(-c2cnc3ccccn23)sc1C(N)=O)c1ccc(CN2CCC(F)CC2)cc1Cl         3.7
8  C[C@@H](Oc1cc(-c2cnc3ccccn23)sc1C(N)=O)c1ccccc1CO         3.2

---

experiment: Lipophilicity, Log D of the compound; format: physicochemical; details: octanol/water
Parameter logD: see the listing below.
assay_readout: logD

In [3]: df
Out[3]:
                                   molecule  test_value
0  C[C@@H](Oc1cc(-c2cnc3ccccn23)sc1C(N)=O)c1ccc(CNC(C)(C)C)cc1OC(F)F         2.7
1  C[C@@H](Oc1cc(-c2cnc3ccccn23)sc1C(N)=O)c1ccc(CNC(C)(C)C)cc1Cl         2.9
2  C[C@@H](Oc1cc(-c2cnc3ccccn23)sc1C(N)=O)c1ccc(CNCCO)cc1Cl         2.4
3  C[C@@H](Oc1cc(-c2cnc3ccccn23)sc1C(N)=O)c1ccc(CNC(C)(C)C)cc1C(F)F         2.6
4  CC(Oc1cc(-c2cnc3cc(CO)ccn23)sc1C(N)=O)c1ccccc1Cl (racemic)         4.1
5  C[C@@H](Oc1cc(-c2cnc3ccccn23)sc1C(N)=O)c1ccccc1Cl         4.8
6  C[C@@H](Oc1cc(-c2cnc3ccccn23)sc1C(N)=O)c1ccc(CO)cc1Cl         3.8
7  NC(=O)c1sc(-c2cnn3ccccc23)cc1OCc1ccccc1C(F)(F)F         4.8
8  C[C@@H](Oc1cc(-c2cnc3ccccn23)sc1C(N)=O)c1ccc(CNCCCO)cc1Cl         2.1
